Reference source for all entries: patent US20190202907A1

tgt: T1, human ST2L (human, UniProt Q01638 19-328, limits assumed)
T1 construct: also called IL-1R4; IL-33Ra
T1 sequence (looked up): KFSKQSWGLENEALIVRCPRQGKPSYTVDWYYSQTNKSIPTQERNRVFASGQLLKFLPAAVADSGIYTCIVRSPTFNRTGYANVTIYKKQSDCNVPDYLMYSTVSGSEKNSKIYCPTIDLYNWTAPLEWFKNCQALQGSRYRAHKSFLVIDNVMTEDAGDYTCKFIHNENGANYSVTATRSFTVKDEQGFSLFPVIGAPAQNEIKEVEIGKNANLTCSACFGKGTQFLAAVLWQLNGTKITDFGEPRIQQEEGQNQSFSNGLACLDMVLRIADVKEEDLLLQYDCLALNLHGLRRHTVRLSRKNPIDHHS
run_description: affinity table; method not stated
Listing of recorded pKd by entry.
pKd is defined as minus the log10 of a concentration measured in mol/L.

Looking for the measured pKd of STLM207 (antibody, from another filing, V domains shown) VH: EVQLLESGGGLVQPGGSLRLSCAASGFTFSSYDMIWVRQAPGKGLEWVSTIRGEGGTTAYADSVKGRFTISRDNSKNTLYLQMNSLRAEDTAVYYCARDPWSTEGSFFVLDYWGQGTLVTVSS VL: EIVLTQSPATLSLSPGERATLSCRASQSVDDDLAWYQQKPGQAPRLLIYDASNRATGIPARFSGSGSGTDFTLTISSLEPEDFAVYYCQQYITAPLTFGQGTKVEIK , can you help?
10.32

Would you kindly share the measured pKd for STLM230 (antibody, from another filing, V domains shown) VH: EVQLVQSGAEVKKPGATVKISCKVSAFNIKDDYMHWVQQAPGKGLEWMGRIDPAIGNTEYAEKFQGRVTITADTSTDTAYMELSSLRSEDTAVYYCATGDFYAMAYWGQGTLVTVSS VL: DIQMTQSPSSLSASVGDRVTITCITNTDIDDVIHWYQQKPGKAPKLLIYEGNTLRPGVPSRFSGSGSGTDFTLTISSLQPEDFATYYCLQSDNMLTFGQGTKLEIK ?
10.42

# ---- query binder ----
What value of pKd has been recorded for this entry: STLM215 (antibody, from another filing, V domains shown) VH: EVQLLESGGGLVQPGGSLRLSCAASGFTFSSYDMFWVRQAPGKGLEWVSAIAGEGGRTYYADSVKGRFTISRDNSKNTLYLQMNSLRAEDTAVYYCARDPWSTEGSFFVLDYWGQGTLVTVSS VL: EIVLTQSPATLSLSPGERATLSCRASQSVDDDLAWYQQKPGQAPRLLIYDASNRATGIPARFSGSGSGTDFTLTISSLEPEDFAVYYCQQYIGAPITFGQGTKVEIK
10.60
